Tested on: Klebsiella pneumoniae EK-6
Assay: Minimal inhibitory concentration (MIC), standard agar dilution method
Assay type: cell-based
Settings: EK6, Mueller Hinton agar, 37° C., 18 hours, Examples 1, 2, 4, 5, 6, 8 and 22 as sodium salts, others as free carboxylic acids
Counter-ions that a name gives are not always drawn.
Recorded MIC by entry

Recorded MIC, per entry:
COMPOUND | TEST_READOUT | MEASURED_VALUE
Cn1nnnc1SCC1=C(C(=O)O)N2C(=O)[C@@H](NC(=O)[C@H](NC(=O)c3coc4c(O)c(O)ccc4c3=O)c3ccc(O)cc3)[C@H]2SC1 | MIC | ≤ 0.1 µg/mL
CC(=O)Oc1cc2c(=O)c(C(=O)N[C@@H](C(=O)N[C@@H]3C(=O)N4C(C(=O)O)=C(CSc5nnnn5CC(=O)O)CS[C@H]34)c3ccc(O)cc3)coc2c(OC(C)=O)c1OC(C)=O | MIC | ≤ 0.1 µg/mL
CCn1nnnc1SCC1=C(C(=O)O)N2C(=O)[C@@H](NC(=O)[C@H](NC(=O)c3coc4cc(O)c(O)cc4c3=O)c3ccc(O)cc3)[C@H]2SC1 | MIC | ≤ 0.1 µg/mL

Ask: Look up MIC for this compound: O=C(O)C1=C(CSc2nncs2)CS[C@@H]2[C@H](NC(=O)[C@H](NC(=O)c3coc4cc(O)c(O)cc4c3=O)c3ccc(O)cc3)C(=O)N12
Reply: ≤ 0.1 µg/mL

Ask: Look up MIC for this compound: Cc1nnc(SCC2=C(C(=O)O)N3C(=O)[C@@H](NC(=O)Cn4cnnn4)[C@H]3SC2)s1 [Sodium salt of Cefazolin, reference compound]
Reply: 1.56 µg/mL

###

Test system: Escherichia coli NIHJ
TEST_READOUT: MIC (µg/mL)

Recorded MIC, per entry:
SMILES_RECORD | MEASUREMENT_TARGET | UNIT_LABEL | MIC
CC(=O)Oc1ccc2c(=O)c(C(=O)N[C@@H](C(=O)N[C@@H]3C(=O)N4C(C(=O)O)=C(CSc5nnc(C)s5)CS[C@H]34)c3ccccc3)coc2c1OC(C)=O | Escherichia coli NIHJ | µg/mL | 0.8
O=C(O)C1=C(CSc2cccc[n+]2[O-])CS[C@@H]2[C@H](NC(=O)[C@H](NC(=O)c3coc4cc(O)c(O)cc4c3=O)c3ccc(O)cc3)C(=O)N12 | Escherichia coli NIHJ | µg/mL | 0.8
Cn1nnnc1SCC1=C(C(=O)O)N2C(=O)[C@@H](NC(=O)[C@H](NC(=O)c3coc4c(O)c(O)ccc4c3=O)c3ccc(O)cc3)[C@H]2SC1 | Escherichia coli NIHJ | µg/mL | 1.56

(a) O=C(O)C1=C(CSc2nnc[nH]2)CS[C@@H]2[C@H](NC(=O)[C@H](NC(=O)c3coc4cc(O)c(O)cc4c3=O)c3ccc(O)cc3)C(=O)N12
(b) Cc1nnc(SCC2=C(C(=O)O)N3C(=O)[C@@H](NC(=O)[C@H](NC(=O)c4coc5cc(O)c(O)cc5c4=O)c4ccc(O)cc4)[C@H]3SC2)o1
Ask: Which has the smaller recorded MIC, a or b ? I would appreciate it if you answered with the label of your choice.
Reply: b

(1) Cc1nnc(SCC2=C(C(=O)O)N3C(=O)[C@@H](NC(=O)[C@H](NC(=O)c4coc5cc(O)c(O)cc5c4=O)c4ccccc4)[C@H]3SC2)s1
(2) Cn1nnnc1SCC1=C(C(=O)O)N2C(=O)[C@@H](NC(=O)[C@H](NC(=O)c3coc4c(O)c(O)c(O)cc4c3=O)c3ccc(O)cc3)[C@H]2SC1
Ask: Which has the smaller recorded MIC, 1 or 2 ? I would appreciate it if you answered with the label of your choice.
Reply: 1
(1: 0.8 µg/mL, 2: 3.13 µg/mL)

(1) CC(=O)Oc1cc2occ(C(=O)N[C@@H](C(=O)N[C@@H]3C(=O)N4C(C(=O)O)=C(CSc5nnc(C)s5)CS[C@H]34)c3ccccc3)c(=O)c2cc1OC(C)=O
(2) CC(=O)Oc1cc2c(=O)c(C(=O)N[C@@H](C(=O)N[C@@H]3C(=O)N4C(C(=O)O)=C(CSc5nnnn5C)CS[C@H]34)c3ccc(O)cc3)coc2c(OC(C)=O)c1OC(C)=O
(3) O=C(O)C1=C(CSc2ccccn2)CS[C@@H]2[C@H](NC(=O)[C@H](NC(=O)c3coc4cc(O)c(O)cc4c3=O)c3ccc(O)cc3)C(=O)N12
(4) Cn1nnnc1SCC1=C(C(=O)O)N2C(=O)[C@@H](NC(=O)[C@H](NC(=O)c3coc4cc(O)c(O)cc4c3=O)c3ccc(O)cc3)[C@H]2SC1
Ask: Highest MIC first, then in falling order down to the smallest. Answer format: the labels, in the requested order.
Reply: 2, 1, 3, 4

###

The compounds below have reported MIC for Klebsiella pneumoniae EK-6.

COMPOUND | MIC
Cn1nnnc1SCC1=C(C(=O)O)N2C(=O)[C@@H](NC(=O)[C@H](NC(=O)c3coc4ccccc4c3=O)c3ccc(O)cc3)[C@H]2SC1 [Example 15] | 12.5 µg/mL
CC(=O)Oc1cc2occ(C(=O)N[C@@H](C(=O)N[C@@H]3C(=O)N4C(C(=O)O)=C(CSc5nnc(C)s5)CS[C@H]34)c3ccccc3)c(=O)c2cc1OC(C)=O [Example 6] | ≤ 0.1 µg/mL
O=C(O)C1=C(CSc2ccccn2)CS[C@@H]2[C@H](NC(=O)[C@H](NC(=O)c3coc4cc(O)c(O)cc4c3=O)c3ccc(O)cc3)C(=O)N12 [Example 24] | ≤ 0.1 µg/mL
Cc1nnc(SCC2=C(C(=O)O)N3C(=O)[C@@H](NC(=O)[C@H](NC(=O)c4coc5cc(O)c(O)cc5c4=O)c4ccc(O)cc4)[C@H]3SC2)o1 [Example 27] | ≤ 0.1 µg/mL
CC(=O)Oc1cc2c(=O)c(C(=O)N[C@@H](C(=O)N[C@@H]3C(=O)N4C(C(=O)O)=C(CSc5nnnn5C)CS[C@H]34)c3ccc(O)cc3)coc2c(OC(C)=O)c1OC(C)=O [Example 29] | ≤ 0.1 µg/mL
O=C(O)C1=C(CSc2cccc[n+]2[O-])CS[C@@H]2[C@H](NC(=O)[C@H](NC(=O)c3coc4cc(O)c(O)cc4c3=O)c3ccc(O)cc3)C(=O)N12 [Example 25] | ≤ 0.1 µg/mL

Ask: MIC of CC(=O)Oc1cc2occ(C(=O)N[C@@H](C(=O)N[C@@H]3C(=O)N4C(C(=O)O)=C(CSc5nnnn5C)CS[C@H]34)c3ccc(O)cc3)c(=O)c2cc1OC(C)=O [Example 7] on Klebsiella pneumoniae EK-6?
Reply: ≤ 0.1 µg/mL

Ask: MIC of CC(=O)Oc1ccc2c(=O)c(C(=O)N[C@@H](C(=O)N[C@@H]3C(=O)N4C(C(=O)O)=C(CSc5nnnn5C)CS[C@H]34)c3ccc(O)cc3)coc2c1OC(C)=O [Example 11] on Klebsiella pneumoniae EK-6?
Reply: ≤ 0.1 µg/mL

Ask: MIC of CN(C)CCn1nnnc1SCC1=C(C(=O)O)N2C(=O)[C@@H](NC(=O)[C@H](NC(=O)c3coc4cc(O)c(O)cc4c3=O)c3ccc(O)cc3)[C@H]2SC1 [Example 21] on Klebsiella pneumoniae EK-6?
Reply: ≤ 0.1 µg/mL

Ask: MIC of Cn1nnnc1SCC1=C(C(=O)O)N2C(=O)[C@@H](NC(=O)[C@H](NC(=O)c3coc4cc(O)ccc4c3=O)c3ccc(O)cc3)[C@H]2SC1 [Example 13] on Klebsiella pneumoniae EK-6?
Reply: 12.5 µg/mL

Ask: MIC of Cc1nnc(SCC2=C(C(=O)O)N3C(=O)[C@@H](NC(=O)[C@H](NC(=O)c4coc5cc(O)c(O)cc5c4=O)c4ccc(O)cc4)[C@H]3SC2)s1 [Example 4] on Klebsiella pneumoniae EK-6?
Reply: ≤ 0.1 µg/mL

###

The compounds below have reported MIC for Escherichia coli NIHJ.
TEST_READOUT: MIC (µg/mL)

Recorded MIC, per entry:
SMILES_RECORD | UNIT_LABEL | MIC
CC(=O)Oc1ccc2c(=O)c(C(=O)N[C@@H](C(=O)N[C@@H]3C(=O)N4C(C(=O)O)=C(CSc5nnnn5C)CS[C@H]34)c3ccc(O)cc3)coc2c1OC(C)=O | µg/mL | 0.8
CC(=O)Oc1cc2c(=O)c(C(=O)N[C@@H](C(=O)N[C@@H]3C(=O)N4C(C(=O)O)=C(CSc5nnnn5CC(=O)O)CS[C@H]34)c3ccc(O)cc3)coc2c(OC(C)=O)c1OC(C)=O | µg/mL | 0.8

(A) CC(=O)Oc1cc2occ(C(=O)N[C@@H](C(=O)N[C@@H]3C(=O)N4C(C(=O)O)=C(CSc5nnc(C)s5)CS[C@H]34)c3ccc(O)cc3)c(=O)c2cc1OC(C)=O
(B) CN(C)CCn1nnnc1SCC1=C(C(=O)O)N2C(=O)[C@@H](NC(=O)[C@H](NC(=O)c3coc4cc(O)c(O)cc4c3=O)c3ccc(O)cc3)[C@H]2SC1
(C) CCn1nnnc1SCC1=C(C(=O)O)N2C(=O)[C@@H](NC(=O)[C@H](NC(=O)c3coc4cc(O)c(O)cc4c3=O)c3ccc(O)cc3)[C@H]2SC1
Ask: Highest MIC first, then in falling order down to the smallest. Answer format: the labels, in the requested order.
Reply: A, B, C
